Where do the numbers come from? From patent US20230293560A1.

Tested on: L. gasseri
Experiment: High throughput assay screening of prebiotics
Type: cell-based, Lactobacillus gasseri
Set-up: key: ++: if growth and fermentation was equal to or greater than the positive control; +: if growth and fermentation was less than the positive control; +: if weak or no growth or fermentation; +^2: Bacteria demonstrated growth but no fermentation on the prebiotic
Settings: L. gasseri KC16-7171-1, Bladder; 2% w/v prebiotic in API 50 CHL media
parameter: growth and fermentation vs positive control, Lg-2

* OC[C@H]1O[C@](O)(CO)[C@@H](O)[C@@H]1O | +
* OC[C@H]1O[C@H](O[C@H]2O[C@H](CO)[C@@H](O)[C@H](O)[C@H]2O)[C@H](O)[C@@H](O)[C@@H]1O | ++
* CC(=O)N[C@H]1C(O)O[C@H](CO)[C@@H](O)[C@@H]1O (some centres unmarked) | ++
* OC[C@H]1O[C@@H](O[C@H]2[C@H](O)[C@@H](O)[C@H](O)O[C@@H]2CO)[C@H](O)[C@@H](O)[C@@H]1O | ++

Attention now turns to another entry.
QUERY: Supply reported growth and fermentation vs positive control, Lg-2 belonging to this molecule: OC[C@H]1O[C@@H](O)[C@H](O)[C@@H](O)[C@@H]1O
RESULT: ++

---

System: L. crispatus
Test: High throughput assay screening of prebiotics
Format: cell-based, Lactobacillus crispatus
Set-up: key: ++: if growth and fermentation was equal to or greater than the positive control; +: if growth and fermentation was less than the positive control; +: if weak or no growth or fermentation; +^2: Bacteria demonstrated growth but no fermentation on the prebiotic
Conditions: L. crispatus KC18-1173-1, Bladder; 2% w/v prebiotic in API 50 CHL media
parameter: growth and fermentation vs positive control, Lc-3

Here's what some known entries look like.
• CC(=O)N[C@H]1C(O)O[C@H](CO)[C@@H](O)[C@@H]1O (stereo partly drawn) = ++
• OC[C@H]1O[C@H](O[C@H]2O[C@H](CO)[C@@H](O)[C@H](O)[C@H]2O)[C@H](O)[C@@H](O)[C@@H]1O = ++
• OC[C@H]1O[C@@H](O)[C@H](O)[C@@H](O)[C@@H]1O = ++
• OC[C@H]1O[C@@H](O[C@H]2[C@H](O)[C@@H](O)[C@H](O)O[C@@H]2CO)[C@H](O)[C@@H](O)[C@@H]1O = +

For each entry beneath this line, provide reported growth and fermentation vs positive control, Lc-3.
1. OC[C@H]1O[C@H](OC[C@H]2OC(O)(CO)[C@@H](O)[C@@H]2O)[C@H](O)[C@@H](O)[C@@H]1O (stereo partly drawn)
2. OC[C@H]1O[C@](O)(CO)[C@@H](O)[C@@H]1O

RESULT:
++
++
